Recorded values, source PubChem BioAssay (NCI).

System: NCI/ADR-RES ovarian
Assay: NCI-60 one-dose screen, 48 h (100 = growth as untreated, 0 = no growth, -100 = all killed)
Conditions: 10 µM unless noted
This is part of a sample that, as a whole, favours compounds with a hit. Of some 83,000 tested, about 20% had one in any assay.
measurementLabel: growth (%)

{"columns": ["compound", "assayTarget", "numericReadout"],
 "data": [
  ["O=c1cc(-c2ccccc2)[nH]c2ncc(-c3ccc(F)cc3)n12", "NCI/ADR-RES ovarian", 45.3],
  ["CN1CCN(CCOc2ccc(-c3cnc4c(-c5cccc(F)c5F)cnn4c3)cc2)CC1", "NCI/ADR-RES ovarian", 8.9],
  ["Cc1ccc(-c2nc3nc(-c4ccccc4)nc(N4CCCN(S(C)(=O)=O)CC4)c3o2)cc1", "NCI/ADR-RES ovarian", 56.2],
  ["COc1ccccc1C(=O)Nc1cccc(NC(=O)c2ccoc2C)c1", "NCI/ADR-RES ovarian", 9.85],
  ["N#Cc1ccc(O)c(C2=NCC(Cc3ccccc3)O2)c1 (stereo not given)", "NCI/ADR-RES ovarian", 0.317],
  ["CC/C(Cc1ccccc1)=C(\\c1ccc(OCCCN(C)C)cc1)c1ccc(OC(=O)NCc2ccccc2)cc1", "NCI/ADR-RES ovarian", 81.4],
  ["O=C(N=Nc1c(O)[nH]c2ccccc12)Nc1ccc(F)cc1", "NCI/ADR-RES ovarian", 104],
  ["CCCCNC(=O)c1cc([N+](=O)[O-])cc(C2CCCCC2)c1O", "NCI/ADR-RES ovarian", 49.6],
  ["O=C(Cn1nnc2ccccc21)N/N=C/c1c[nH]c2ccccc12", "NCI/ADR-RES ovarian", 47.6],
  ["CC1=CCC(OC(=O)C(C)(C)CC(O)(C(C)O)C(O)C2(C)C=CC(Cc3ccc(C(C)C)cc3)(C(C)C)CC2)(C(C)C)CC1 (stereo not given)", "NCI/ADR-RES ovarian", 98.2]
]}

----------
Below is a list of entries, each paired with its recorded growth value.
Tested on: SF-268 CNS
Assay: NCI-60 one-dose screen, 48 h (100 = growth as untreated, 0 = no growth, -100 = all killed)
Details: 10 µM unless noted
Compounds without any hit were thinned out: in the full panel of roughly 83,000, 20% have a hit.

{"columns": ["molecule", "unitText", "growth"],
 "data": [
  ["CN1CCN(Cc2ccc(NC(=O)c3cncc(C#Cc4cnc(N)c5ccc(F)cc45)c3)cc2C(F)(F)F)CC1", "%", 29.6],
  ["CC(=O)c1sc2sc(C(C)=O)c(C)c2c1C", "%", 97.1],
  ["N#CC1=C(N)Oc2ccc3ccccc3c2C1c1ccc([N+](=O)[O-])cc1 (centres undefined)", "%", 80.5],
  ["CC1(C)CC(=O)c2c(nn(-c3ccc(Br)cc3)c2-c2cn(-c3ccccc3)nc2-c2cccnc2)C1", "%", 97.8],
  ["CCN1CCN(c2cc(C)nc(N(CCNc3ccnc4cc(Cl)ccc34)Cc3ccc4c(c3)OCO4)n2)CC1", "%", 7.14],
  ["O=C(CN1CCCCCC1)Nc1nc2ccc(NCc3ccc(Cl)cc3)cc2s1", "%", 99.9],
  ["CCNC(=O)Oc1ccc(/C(=C(/C)Cc2ccc(OC)cc2)c2ccc(OCCN3CCCCC3)cc2)cc1", "%", 70],
  ["COc1cc(-c2nc3sccn3c2-c2ccnc(NCCNS(=O)(=O)c3ccc(Cl)cc3)n2)ccc1F", "%", 30.6],
  ["COc1ccc(C2=CC(c3cc(OC)c(OC)c(OC)c3)n3ncnc3N2)cc1 (centres undefined)", "%", 31.4]
]}

----------
Below is a list of entries, each paired with its recorded growth value.
System: HOP-62 NSCLC
Experiment: NCI-60 one-dose screen, 48 h (100 = growth as untreated, 0 = no growth, -100 = all killed)
Details: 10 µM unless noted
The panel holds about 83,000 compounds, 20% with a hit somewhere; the sample as a whole holds those more often.

{"columns": ["molecule", "growth (%)"],
 "data": [
  ["Cc1ccc(-c2nc(/C=C3/C(=O)Nc4ccc(F)cc43)c3ccccn23)cc1", 92.8],
  ["O=C(NNC(=O)c1ccc(NC(=O)c2ccccn2)cc1)Nc1ccc2ccccc2c1", 115],
  ["COc1cc(-c2nc3cc(Cl)c(Cl)cc3[nH]2)ccc1OCC(=O)N=Nc1c(O)[nH]c2ccc(Cl)cc12", -36.7],
  ["O=C1/C(=C\\c2cccc3nccnc23)SC(=S)N1CCc1ccc(O)cc1", 99.5],
  ["C/C(=N\\O)c1ccc(NC(=O)CSc2nnc(-c3cc(-c4ccc(S(N)(=O)=O)cc4)nc4ccccc34)n2-c2ccccc2)cc1", 95.5],
  ["Nc1[nH]c(=S)nc2oc(-c3ccccc3)c(-c3ccccc3)c12", 86.6],
  ["Nc1nc(N)c2c(n1)NC(c1ccc(Cl)cc1)C1CCc3ccccc3C1=N2 (centres undefined)", 84.2],
  ["CCCCC#Cc1c(I)n(C)c(=O)[nH]c1=O", 93.9],
  ["CNCc1cccc2c1OCCOCCOCCNS(=O)(=O)c1ccc(cc1)-c1cnc(N)c(n1)C(=O)N2", 26.4]
]}

----------
Tested on: NCI-H23 lung
Assay: NCI-60 one-dose screen, 48 h (100 = growth as untreated, 0 = no growth, -100 = all killed)
Conditions: 10 µM unless noted
This is part of a sample that, as a whole, favours compounds with a hit. Of some 83,000 tested, about 20% had one in any assay. Active and inactive are the calls of the source. How the source made its calls: active means growth percent below 10; inactive means the rest.
measurementLabel: growth

{"columns": ["smilesStr", "result"],
 "data": [
  ["COc1ccc(/C=C2\\CN(C(=O)C(Cl)Cl)C/C(=C\\c3ccc(OC)cc3)C2=O)cc1", "-36.9% (active)"],
  ["O=C1/C(=C2\\SC(=S)N(C3CC3)C2=O)SC(=S)N1C1CC1", "96.7% (inactive)"],
  ["Cc1cccc(N2CCC(=O)NC2=S)c1", "98.5% (inactive)"],
  ["CN(C)c1ccc(-c2ccc3c(c2)c(-c2ccccc2)nc(=O)n3C)cn1", "71% (inactive)"],
  ["FC(F)(F)Oc1cccc(-c2cnc3ccc(-c4ccncc4)nn23)c1", "15.6% (inactive)"],
  ["COc1ccc(/C(C)=C(/c2ccc(OCCCN(C)C)cc2)c2ccc(OC(=O)c3ccccc3)cc2)cc1", "82.2% (inactive)"]
]}

----------
Below is a list of entries, each paired with its recorded growth value.
Test system: KM12 colon
Assay: NCI-60 one-dose screen, 48 h (100 = growth as untreated, 0 = no growth, -100 = all killed)
Conditions: 10 µM unless noted
This is part of a sample that, as a whole, favours compounds with a hit. Of some 83,000 tested, about 20% had one in any assay. Active and inactive are the calls of the source. How the source made its calls: active means growth percent below 10; inactive means the rest.
measurementLabel: growth

{"columns": ["molecule", "result"],
 "data": [
  ["Oc1c(CN2CCOCC2)cc(COCc2ccccc2)c2cccnc12", "35.6% (inactive)"],
  ["CC1CCN(C(=O)CCCl)c2ccccc21 (stereo unspecified)", "102% (inactive)"],
  ["C/C(Cc1ccc(Cl)cc1)=C(\\c1ccc(OCCCN(C)C)cc1)c1ccc(OC(=O)Cc2ccccc2)cc1", "94.7% (inactive)"],
  ["COc1ccc(NC(=O)Nc2ccc(OCCCCCC(=O)NO)cc2)cc1", "103% (inactive)"],
  ["O=C1c2ccccc2C(=O)C1c1ccc(Br)cc1", "107% (inactive)"],
  ["N#Cc1cccc(C2C3=C(COC3=O)N(CCO)c3cc4c(cc32)OCO4)c1 (stereo unspecified)", "27.9% (inactive)"],
  ["COC(=O)c1nc(-c2ccccc2)oc1S(=O)(=O)NCC(c1ccc(Cl)cc1)N1CCOCC1 (stereo unspecified)", "89% (inactive)"],
  ["Nc1[nH]n2cc(-c3ccc(F)cc3)nc2c1N=Nc1ccc(S(N)(=O)=O)cc1", "73.1% (inactive)"],
  ["COc1ccc(C2=CC(c3cc(OC)c(OC)c(OC)c3)n3ncnc3N2)cc1 (stereo unspecified)", "6% (active)"],
  ["C=C(C)[C@@H]1CC[C@]2(C(N)=O)CC[C@]3(C)[C@H](CC[C@@H]4[C@@]5(C)CC[C@H](OCCC#N)C(C)(C)[C@@H]5CC[C@]43C)[C@@H]12", "89.2% (inactive)"],
  ["CC1(C)N=C(N)N=C(N)N1c1cccc(CCc2ccccc2)c1", "21.9% (inactive)"],
  ["CCN1C(=O)N(CC)C2C1NN=c1s/c(=C\\c3cnc(C)n3C)c(=O)n12 (stereo unspecified)", "16.1% (inactive)"],
  ["COc1cc(OC)c(C(=O)C(CN(C)C)CN(C)C)cc1OC", "111% (inactive)"],
  ["O=C1/C(=C\\c2cccc3nccnc23)SC(=S)N1CCc1ccc(O)cc1", "97.1% (inactive)"],
  ["CC1C(/C=N/NC(N)=S)C(C#N)(C#N)C1(C#N)C#N (stereo unspecified)", "97% (inactive)"],
  ["COc1ccc(-c2nn(-c3ccccc3)cc2/C=C/C(=O)NNC(=O)Nc2ccc(C)cc2)cc1", "101% (inactive)"],
  ["O=C(NNc1cnccn1)c1nc2cc(F)ccc2n2cccc12", "18.5% (inactive)"],
  ["Cc1ccc(C(=O)c2ccc(CC(=O)NN3C(=O)c4ccccc4C3=O)n2C)cc1", "102% (inactive)"],
  ["CNC(=O)c1ccccc1Nc1nc(Nc2cc(OC)c(OC)c(OC)c2)ncc1Br", "7.57% (active)"],
  ["Cc1cc2c(cc1C)N(C(=O)CCl)CC(=O)N2", "60.2% (inactive)"],
  ["CCN1C(=O)N(CC)C2C1N=C(SCc1ccc(Cl)cc1)N2/N=C/C=C/c1ccccc1OC (stereo unspecified)", "64.6% (inactive)"]
]}
